Sourced from patent KR20160022857A

biological target: T1, HER2-ECD-His 단백질 (human, UniProt P04626 23-652); assay: SPR (Biacore 3000); HER2-ECD-His amine-coupled on CM5; periplasmic extract as analyte
T1 construct: extracellular domain; Origin and limits of the construct are not described; not shown: His tag
So basically: koff 감소 정도 (Fold) vs hz1E11 at 6 fold or higher? That is True. Lower than 6 fold? That is False.

1) M3-LH-A3-3-2F1 (antibody, V domains shown, substitutions derived from the printed CDR3) VH: EVQLVESGGGLVQPGGSLRLSCAASGFTFSSYTMSWVRQAPGKGLEWVAYISNGGGSTYYPDTVKGRFTISRDNAKNSLYLQMNSLRAEDTAVYYCARHLGGTASFDYWGQGTLVTVSS VL: DIQMTQSPSSLSASVGDRVTITCLASQTIGTWLAWYQQKPGKAPKLLIYVATSLADGVPSRFSGSGSGTDFTLTISSLQPEDFATYYCQQNAYNPWTFGQGTKVEIK	False
2) M3-LH-A1-2-2F4 (antibody, V domains shown) VH: EVQLVESGGGLVQPGGSLRLSCAASGFTFSSYTMSWVRQAPGKGLEWVAYISNGGGSTYYPDTVKGRFTISRDNAKNSLYLQMNSLRAEDTAVYYCARNLGGTASFDYWGQGTLVTVSS VL: DIQMTQSPSSLSASVGDRVTITCLASQTIGTWLAWYQQKPGKAPKLLIYVATSLADGVPSRFSGSGSGTDFTLTISSLQPEDFATYYCQQLVRIPWTFGQGTKVEIK	False
3) M3-L-A1-3-2C2 (antibody, V domains shown, hz1E11 variant, periplasmic extract; substitutions derived from the printed CDR3 against hz1E11) VH: EVQLVESGGGLVQPGGSLRLSCAASGFTFSSYTMSWVRQAPGKGLEWVAYISNGGGSTYYPDTVKGRFTISRDNAKNSLYLQMNSLRAEDTAVYYCARHLGGTASFDYWGQGTLVTVSS VL: DIQMTQSPSSLSASVGDRVTITCLASQTIGTWLAWYQQKPGKAPKLLIYVATSLADGVPSRFSGSGSGTDFTLTISSLQPEDFATYYCQQLGFIPWTFGQGTKVEIK	False
4) M3-L-A1-3-1F11 (hz1E11-154), periplasmic extract (antibody, V domains shown, Clone as expressed in bacteria, periplasmic extract; LCDR3 QQTAFSPWT) VH: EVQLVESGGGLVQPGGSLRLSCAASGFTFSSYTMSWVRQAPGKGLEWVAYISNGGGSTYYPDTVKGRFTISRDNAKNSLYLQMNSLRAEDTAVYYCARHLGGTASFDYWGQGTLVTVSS VL: DIQMTQSPSSLSASVGDRVTITCLASQTIGTWLAWYQQKPGKAPKLLIYVATSLADGVPSRFSGSGSGTDFTLTISSLQPEDFATYYCQQTAFSPWTFGQGTKVEIK	True
5) M1-LH-A3-3-1A6 (antibody, V domains shown) VH: EVQLVESGGGLVQPGGSLRLSCAASGFTFSSYTMSWVRQAPGKGLEWVAYISNGGGSTYYPDTVKGRFTISRDNAKNSLYLQMNSLRAEDTAVYYCARNYGGTASFDYWGQGTLVTVSS VL: DIQMTQSPSSLSASVGDRVTITCLASQTIGTWLAWYQQKPGKAPKLLIYVATSLADGVPSRFSGSGSGTDFTLTISSLQPEDFATYYCQQLVRTPWTFGQGTKVEIK	False

### Prompt Form field: koff 감소 정도 (Fold) vs hz1E11 at least 6 fold? Entry: M3-LH-A3-3-2A5 (antibody, V domains shown) VH: EVQLVESGGGLVQPGGSLRLSCAASGFTFSSYTMSWVRQAPGKGLEWVAYISNGGGSTYYPDTVKGRFTISRDNAKNSLYLQMNSLRAEDTAVYYCARHWGGTASFDYWGQGTLVTVSS VL: DIQMTQSPSSLSASVGDRVTITCLASQTIGTWLAWYQQKPGKAPKLLIYVATSLADGVPSRFSGSGSGTDFTLTISSLQPEDFATYYCQQMFSTPWTFGQGTKVEIK
### Response False

### Prompt Form field: koff 감소 정도 (Fold) vs hz1E11 at least 6 fold? Entry: M3-L-A1-3-1A12 (hz1E11-133), periplasmic extract (antibody, V domains shown, Clone as expressed in bacteria (IPTG), periplasmic extract; LCDR3 QQNAYAPWT) VH: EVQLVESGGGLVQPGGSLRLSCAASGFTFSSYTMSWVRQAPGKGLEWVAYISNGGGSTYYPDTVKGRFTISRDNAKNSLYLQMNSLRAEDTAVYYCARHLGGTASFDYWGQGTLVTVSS VL: DIQMTQSPSSLSASVGDRVTITCLASQTIGTWLAWYQQKPGKAPKLLIYVATSLADGVPSRFSGSGSGTDFTLTISSLQPEDFATYYCQQNAYAPWTFGQGTKVEIK
### Response True

### Prompt Form field: koff 감소 정도 (Fold) vs hz1E11 at least 6 fold? Entry: M3-LH-A1-1-1H1 (antibody, V domains shown) VH: EVQLVESGGGLVQPGGSLRLSCAASGFTFSSYTMSWVRQAPGKGLEWVAYISNGGGSTYYPDTVKGRFTISRDNAKNSLYLQMNSLRAEDTAVYYCARNYGGTASFDYWGQGTLVTVSS VL: DIQMTQSPSSLSASVGDRVTITCLASQTIGTWLAWYQQKPGKAPKLLIYVATSLADGVPSRFSGSGSGTDFTLTISSLQPEDFATYYCQQNFIAPWTFGQGTKVEIK
### Response False

### Prompt Form field: koff 감소 정도 (Fold) vs hz1E11 at least 6 fold? Entry: M1-L-A1-3-1C3 (hz1E11-3), periplasmic extract (antibody, V domains shown, Clone as expressed in bacteria, periplasmic extract; LCDR3 DQMYSTPWT) VH: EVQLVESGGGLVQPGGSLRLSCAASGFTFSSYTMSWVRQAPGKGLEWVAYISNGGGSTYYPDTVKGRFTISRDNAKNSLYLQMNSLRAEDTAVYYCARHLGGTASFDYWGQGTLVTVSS VL: DIQMTQSPSSLSASVGDRVTITCLASQTIGTWLAWYQQKPGKAPKLLIYVATSLADGVPSRFSGSGSGTDFTLTISSLQPEDFATYYCDQMYSTPWTFGQGTKVEIK
### Response True
